I'd be grateful if you could share measured apparent KD of MS2 coat protein for these entries.
test system: MS2 coat protein; assay: apparent KD of MS2 coat protein; higher = weaker reporter binding; details: Eterna round: R101; input ligand: none
Report the figure in nM without appending any unit label.

Query :: Look up apparent KD of MS2 coat protein of CCUGCACUUCAAGGAUAUCCAGUCGAAACGACUGGAGAAGGUGAGGAUCACCCAUCUAGCCUGACGAAAGUCAGGCAUGCAGGA [#SharedSequence - ExNG1-7] (puzzle (switch architecture): Exclusion NG 1) and report it.
Result :: 90.4

Query :: Look up apparent KD of MS2 coat protein of UAAAUAAAUCCUAGAGGAUCACCCUAGGAUAUGAGGCUGCACCUCGGAUAAUCCGAGGUGCAGCCUCAGAAGGAGGGUAAUAAA [#SharedSequence - SLExNG3: 1-2] (puzzle (switch architecture): Small Loop Exclusion NG 3) and report it.
Result :: 14.4

###

tested on: MS2 coat protein; test: apparent KD of MS2 coat protein; designed switch direction (-1 OFF switch, 1 ON switch): 1; higher = weaker reporter binding; conditions: input ligand: microRNA oligo, concentration not stated
I'd be grateful if you could share measured apparent KD of MS2 coat protein for these entries.
Report the figure in nM without appending any unit label.

Query :: Enter recorded apparent KD of MS2 coat protein with MS2 coat protein for GAGUGGAAGUAAGGAUAUAUAAUGAUAAUCACAGUAGAAGGUACUAACAUGAGGAUCACCCAUGUAGGACUAUACCAGAGAGGG [Parity 44 - Jieux - Same State NG 1] (Eterna round: R96, puzzle: Same State NG 1) here.
Result :: 12.3

Query :: Enter recorded apparent KD of MS2 coat protein with MS2 coat protein for GUAGCAUGCAGCGAGGAUAUUCAUAUUAAAACAUGAGGAUCACCCAUGUAGGCCAAAAGGCCUUGGGAGAAGGCGCACAUGCUAC [Xeonanis - 20] (Eterna round: R96, puzzle: Same State 2) here.
Result :: 360

Query :: Enter recorded apparent KD of MS2 coat protein with MS2 coat protein for AAAAAACAUGAGGAUCACCCAUGUCAAAAGACAUGAGGAUAUGUACAGACUUCGGUCUGUACAGAAGGCAUGAAAA [SS1 - 1011] (Eterna round: R96, puzzle: Same State 1) here.
Result :: 359

Query :: Enter recorded apparent KD of MS2 coat protein with MS2 coat protein for GUGGUCAGACAUGAGGAUCACCCAUGUGGAAUAAAUAACAACUAGGAUAUGUAAUAUAGGAUAUAACAGAAGGAGUGAUUGGUG (Eterna round: R96, puzzle: Same State NG 3) here.
Result :: 111

Query :: Enter recorded apparent KD of MS2 coat protein with MS2 coat protein for GCUCGACGUAUUGUUUACAUGAGGAUCACCCAUGUAGGUGCGAAGGAUAUCUACGUGUUUCAUGUAGAGAAGGUCGUGUCGAGC [SameState NG3 #92] (Eterna round: R96, puzzle: Same State NG 3) here.
Result :: 42.5

Query :: Enter recorded apparent KD of MS2 coat protein with MS2 coat protein for UGUUGUAUUACAGGAUAUCUAUUAUUUGUAUUUAGAGAAGGGUAUUCACAUGAGGAUCACCCAUGUAUAUACGAGGAAGUUGUG [JMF's solution 20] (Eterna round: R96, puzzle: Same State NG 1) here.
Result :: 42.4

Query :: Enter recorded apparent KD of MS2 coat protein with MS2 coat protein for AGCCGAGACUGAGGAUAUUUGUAUCUACAUGAGGAUCACCCAUGUAGCAACACGUGGUAGUGAUCGAAGAAGGCAGCUCGGCGC [MOD2 of Omei's SS(NG)2 Cv2] (Eterna round: R96, puzzle: Same State NG 2) here.
Result :: 282

Query :: Enter recorded apparent KD of MS2 coat protein with MS2 coat protein for GCUCGAUGUGCUGUUUACAUGAGGAUCACCCAUGUAGAUGCGGAGGAUAUCUACGUGCUUUAUGUAGAGAAGGUCGUAUCGAGC [SameState NG3 #83] (Eterna round: R96, puzzle: Same State NG 3) here.
Result :: 41.2

Query :: Enter recorded apparent KD of MS2 coat protein with MS2 coat protein for GGAAAGAGGUAAGGAUAUGCAUGGCUGGGACAUGAGGAUCACCCAUGUAAUAGAAGAAAUCUAGGGUAGAAGGUACAAGGAAGG [AK SSNG2-V2-9] (Eterna round: R96, puzzle: Same State NG 2) here.
Result :: 367
